# METHOD DESCRIPTION: CCTE_Mundy_HCI_iCellGluta_NOG_NeuriteCount: CCTE's Neurite Outgrowth Assay in iCellGluta cells for Neurite Count, Mundy Lab (AID 2284342);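 further: chemical exposure about 48 hours starting 2 hours after plating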
# Description: CCTE_Mundy_HCI_iCellGluta_NOG is a multiplexed, cell-based-readout assay that uses iCell GlutaNeurons from FUJIFILM Cellular Dynamics, Inc. (FCDI), human glutamatergic enriched neurons derived from induced pluripotent stem (iPS) cells, with measurements taken at 50.33 hours after chemical dosing in a microplate: 96-well plate.CCTE_Mundy_HCI_iCellGluta_NOG_NeuriteCount is one of four components of the CCTE_Mundy_HCI_iCellGluta_NOG assay. […]
Records with an inconclusive call do not appear. Active and inactive are the calls of the source. How the source made its calls: active means hit-call score of the fitted dose curve at least 0.9, where 1 is the maximum; inconclusive means response in the unintended direction; inactive means score below 0.9.
Result category, one only: active, inactive

COMPOUND	ASSIGNED LABEL
CC(=O)[O-].[Tl+]	active

For CCOP(=O)(Oc1cnc(C(C)(C)C)nc1)OC(C)C (stereo unspecified) , what call appears in the results of this test? inactive

Similarly, "CC1(C)[C@@H](C=C(Cl)Cl)[C@@H]1C(=O)O[C@@H](C#N)c1ccc(F)c(Oc2ccccc2)c1" ? inactive

Similarly, "[Cd+2].[Cl-].[Cl-]" ? active

Similarly, CCOP(=O)(OCC)OC(Cl)C(Cl)(Cl)Cl (stereo unspecified) ? inactive

Similarly, "CC1(C)[C@H](C=C(Cl)Cl)[C@H]1C(=O)OCc1c(F)c(F)cc(F)c1F" ? active

---

# Read-out: Transforming growth factor beta 1 (TGFb1), TGFB1 (gene 7040)
# METHOD DESCRIPTION: BSK_KF3CT_TGFb1: BioMAP Diversity Plus: KF3CT Assay for Transforming growth factor beta 1 (TGFb1) Biomarker Activity (AID 2283072)
# CONDITIONS USED: primary human keratinocytes with fibroblasts; actives raise or lower the signal
Activity calls are given as the source filed them. How the source made its calls: active means hit-call score of the fitted dose curve at least 0.9, where 1 is the maximum; inactive means score below 0.9.
Result category, one only: active, inactive

COMPOUND	ASSIGNED LABEL
COC(C)(C)CCC[C@H](C)C/C=C/C(C)=C/C(=O)OC(C)C	active
O=C(CCl)c1ccccc1	active
CC(C)COP(=O)(OCC(C)C)OCC(C)C	inactive
CC(C)(c1cc(Cl)c(O)c(Cl)c1)c1cc(Cl)c(O)c(Cl)c1	active
CCc1cc(C)cc(CC)c1-c1c(OC(=O)C(C)(C)C)n2n(c1=O)CCOCC2	active
C=CC(=O)OCC(CC)CCCC (stereo not drawn)	active

For "O=[N+]([O-])c1ccc(Cl)cc1" , what call appears in the results of this test? inactive

Similarly, "O=S(=O)(c1ccccc1)c1ccccc1" ? inactive

Similarly, "CC1(C)[C@H](C(=O)O[C@H](C#N)c2cccc(Oc3ccccc3)c2)[C@@H]1C=C(Br)Br" ? inactive

Similarly, "N#CCCCCC#N" ? inactive

Similarly, "CC(C)CCCCCCCOP(=O)(Oc1ccccc1)Oc1ccccc1" ? active

Similarly, "Oc1cc(Cl)ccc1Cl" ? inactive

Similarly, "C=CCN(CC=C)C(=O)C(Cl)Cl" ? inactive

---

# METHOD DESCRIPTION: BSK_CASM3C_SRB: Viability Assessment in the BioMAP Diversity Plus: CASM3C Assay (AID 2283050);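 further: total protein by SRB staining as cytotoxicity measure in parallel cultures; cells exposed to compound for 24 h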
# CONDITIONS USED: primary human coronary artery smooth muscle cells
Activity calls are given as the source filed them. The calls were made as follows: active = hit-call score of the fitted dose curve at least 0.9, where 1 is the maximum; inactive = score below 0.9.
Result category, one only: t for active, f for inactive

MOLECULE	ASSIGNED LABEL
Oc1ccc(C2(c3ccc(O)cc3)c3ccccc3-c3ccccc32)cc1	t
CNC(=O)Oc1cc(C)c(SC)c(C)c1	t
CC1(C)[C@H](C(=O)O[C@H](C#N)c2cccc(Oc3ccccc3)c2)[C@@H]1C=C(Br)Br	f

For "O=C1C(Cl)=C(Cl)C(=O)C(Cl)=C1Cl" , what call appears in the results of this test? t

Similarly, "O=c1c2ccccc2c(=O)c2c1cc(Cl)c1[nH]c3c([nH]c12)c(Cl)cc1c(=O)c2ccccc2c(=O)c13" ? f

Similarly, CC(C)(C)C(O)C(Oc1ccc(-c2ccccc2)cc1)n1cncn1 (stereo unspecified) ? t

Similarly, "CCCC[N+](CCCC)(CCCC)CCCC" ? f

Similarly, C=CC(=O)OCC(CC)CCCC (stereo unspecified) ? t

Similarly, Cc1ccc(OP(=O)(Oc2ccc(C)cc2)Oc2ccc(C)cc2)cc1 (tested in a mixture with another compound) ? f

Similarly, "O=[N+]([O-])c1ccc(Cl)cc1" ? f

Similarly, "C=CCN(CC=C)C(=O)C(Cl)Cl" ? f

---

# METHOD DESCRIPTION: TOX21_TR_RXR_BLA_Antagonist_Followup_viability: Viability Assessment in the Tox21 Thyroid Hormone Receptor beta Retinoid X Receptor alpha (RXRa) Antagonism Beta-lactamase (BLA) Follow-Up Assay (AID 2283979)
Records with an inconclusive call do not appear. Active and inactive are the calls of the source. How the source made its calls: active means hit-call score of the fitted dose curve at least 0.9, where 1 is the maximum; inconclusive means response in the unintended direction; inactive means score below 0.9.
MEASUREMENT LABEL: outcome

Example molecules with recorded outcome:
MOLECULE	outcome
CC[C@]1(O)CC[C@H]2[C@@H]3CCC4=CCCC[C@@H]4[C@H]3CC[C@@]21C	inactive
O=c1oc2ccccc2c(O)c1Cc1c(O)c2ccccc2oc1=O	inactive
CCN(CC)CCO[C@H]1CC[C@@]2(C)C(=CC[C@@H]3[C@@H]2CC[C@]2(C)C(=O)CC[C@@H]32)C1	inactive
CC[n+]1ccccc1	inactive
CCC(COC(=O)c1cc(OC)c(OC)c(OC)c1)(c1ccccc1)N(C)C (stereo not drawn)	inactive
C=CC[C@]1(O)CC[C@H]2[C@@H]3CCC4=CC(=O)CCC4=C3C=C[C@@]21C	inactive

// for each molecule below, give its outcome
1. CC[C@H]1C[C@H]2[C@@H]3CCC4=CC(=O)CC[C@@H]4[C@H]3CC[C@]2(C)[C@H]1O
2. CC(=O)[C@H]1CC[C@H]2[C@@H]3CC[C@@H]4C[C@H](O)CC[C@]4(C)[C@H]3CC[C@]12C

["inactive", "inactive"]

---

# STUDY SYSTEM: Norway rat Vesicular Monoamine Transporter (VMAT2), neurotransmitter transporter, Slc18a2 (gene 25549)
# METHOD DESCRIPTION: NVS_TR_rVMAT2: NovaScreen (NVS) Transporter Assay for Norway rat Vesicular Monoamine Transporter (VMAT2), neurotransmitter transporter (AID 2283376);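 further: actives lower the bound radioligand signal below the DMSO level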
# Method: NVS_TR_rVMAT2 is a biochemical, single-readout assay that uses extracted gene-proteins from Rat forebrain in a tissue-based cell-free assay. Measurements were taken 1 hour after chemical dosing in a 96-well plate.NVS_TR_rVMAT2 is one of one assay component(s) measured or calculated from the NVS_TR_rVMAT2 assay. […] This assay endpoint, NVS_TR_rVMAT2, was analyzed in the positive analysis fitting direction relative to DMSO as the negative control and baseline of activity. […]
Results filed as inconclusive are left out. Active and inactive are the calls of the source. Rule for the calls: active = hit-call score of the fitted dose curve at least 0.9, where 1 is the maximum; inconclusive = response in the unintended direction; inactive = score below 0.9.
Result category, one only: active, inactive

Example entries begin here.
MOLECULE	ASSIGNED LABEL
CCOC(=O)C1=NN(c2ccc(Cl)cc2Cl)C(C)(C(=O)OCC)C1 (stereo not given)	active
O=C1c2c(O)ccc(Nc3ccc(CCO)cc3)c2C(=O)c2c([N+](=O)[O-])ccc(O)c21	inactive
COc1cccc(O)c1	inactive
COc1ccc(OC)c(N=Nc2c(O)ccc3ccccc23)c1	active
Clc1nc(Cl)c(Cl)c(Cl)c1Cl	inactive

Now consider the entry below.
For "CCCCCCCCC(C)=O" , what call appears in the results of this test? inactive

---

# Read-out: Thrombomodulin, THBD (gene 7056)
# METHOD DESCRIPTION: BSK_CASM3C_Thrombomodulin: BioMAP Diversity Plus: CASM3C Assay for Thrombomodulin Biomarker Activity (AID 2283051);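 further: thrombomodulin protein level measured by ELISA 24 h after dosing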
# CONDITIONS USED: primary human coronary artery smooth muscle cells; actives raise or lower the signal
Active and inactive are the calls of the source. Rule for the calls: active = hit-call score of the fitted dose curve at least 0.9, where 1 is the maximum; inactive = score below 0.9.
MEASUREMENT LABEL: AC50

Example compounds with recorded AC50:
COMPOUND	MEASUREMENT LABEL	VALUE MEASURED
Cc1ccc(OP(=O)(Oc2ccc(C)cc2)Oc2ccc(C)cc2)cc1 (tested in a mixture with another compound)	AC50	inactive
CC(C)COP(=O)(OCC(C)C)OCC(C)C	AC50	inactive
CC(C)(C)C(=O)CCl	AC50	inactive
CC(C)(C)C(O)C(Oc1ccc(-c2ccccc2)cc1)n1cncn1 (configuration not stated)	AC50	inactive

// for each compound below, give its AC50
1. CCCOC(=O)c1ccccc1C(=O)OCCC
2. C=CCN(CC=C)C(=O)C(Cl)Cl
3. CCCC[N+](CCCC)(CCCC)CCCC
4. O=[N+]([O-])c1ccc(Cl)cc1
5. CC(C)(c1cc(Cl)c(O)c(Cl)c1)c1cc(Cl)c(O)c(Cl)c1
6. Nc1ccc(-c2ccc(N)c(N)c2)cc1N
7. CCC(C)c1cc([N+](=O)[O-])cc([N+](=O)[O-])c1OC(=O)C=C(C)C (configuration not stated)

1. inactive
2. inactive
3. inactive
4. inactive
5. inactive
6. inactive
7. inactive

// for each compound below, give its AC50
1. O=[N+]([O-])C=Cc1ccccc1
2. C=CC(=O)OCC(CC)CCCC (configuration not stated)
3. COc1ccc(CO)cc1
4. O=P1(NCCCl)OCCCN1CCCl (configuration not stated)
5. N#CCCCCC#N
6. O=c1[nH]c(Cl)c(Cl)cc1Cl

20 µM (active)
inactive
inactive
inactive
inactive
inactive
